tested on: SF-268 CNS; test: NCI-60 one-dose screen, 48 h (100 = growth as untreated, 0 = no growth, -100 = all killed); settings: 10 µM unless noted
About 83,000 compounds went through this panel and 20% of them were active in at least one assay; those are over-represented in the sample as a whole.
reported_metric: growth (%)
All answers are understood in %, so give the number only.

-- ask Indicate the recorded growth value for this molecule: Cn1c2ccc(Br)cc2c2c3c(c4c5cc(F)ccc5oc4c21)C(=O)N(O)C3=O
-- reply 70.7

-- ask Give me measured growth, please, for this molecule: O=C(CN1C(=O)S/C(=C\c2ccccc2)C1=O)Nc1ccc(C(=O)/C=C/c2cc3ccccc3nc2Cl)cc1
-- reply 81.8

-- ask Give recorded growth. COc1cc(/C=C/C(=O)c2ccc(NC(=O)COc3cccc4cccnc34)cc2)cc(OC)c1OC
-- reply 81.6

-- ask Complete the entry with growth for COc1ccc2c(c1)c(-c1nn3c(=O)cc(-c4ccccc4)nc3s1)cn2C
-- reply 64.9

---

tested on: MOLT-4 leukemia; experiment: NCI-60 one-dose screen, 48 h (100 = growth as untreated, 0 = no growth, -100 = all killed); conditions: 10 µM unless noted
This is part of a sample that, as a whole, favours compounds with a hit. Of some 83,000 tested, about 20% had one in any assay.
Bucketed by reported growth, buckets being low group = under 20%, middle group = from 20% up to 50%, high group = 50% and over

Worked set:
Cc1cc(C(=O)Nc2ccc(SC#N)cc2)c(C)o1 ... middle group
CC(C)(C)OC(=O)N1CCN(S(=O)(=O)/N=C2\NC(=O)NC2=C(Cl)Cl)CC1 ... high group
O=C1Nc2ccc(Br)cc2/C1=N\c1nnc(-c2ccc(Cl)cc2)o1 ... middle group
Cc1cc(O)c2c(c1)C(=O)C(c1c(C)cc3c(c1O)C(=O)C=CC3=O)=CC2=O ... middle group
O=C(NCCCNc1cc(-c2cn(-c3ccccc3)nc2-c2cccc(O)c2)ccn1)Nc1cccc(C(F)(F)F)c1 ... low group

-- ask Band for CC1(C)CC[C@]2(C(=O)N3CCCNCC3)CC[C@]3(C)C(=CC[C@@H]4[C@@]5(C)CCC(=O)C(C)(C)[C@@H]5CC[C@]43C)[C@H]2C1 ?
-- reply high group

-- ask Consider CC1OC(O[C@@H]2[C@H](O)C(CO)OC(O[C@H]3COC(O[C@H]4CC[C@]5(C)[C@H]6CC[C@]78OC[C@@]9(CC[C@](C)(C=O)C[C@H]97)C(=O)C[C@@]8(C)[C@]6(C)CC[C@H]5C4(C)C)[C@@H](O)[C@@H]3O)[C@H]2OC2OC[C@@H](O)[C@@H](O)[C@@H]2O)[C@@H](O)[C@@H](O)[C@H]1O (stereo partly drawn) . To which growth class does it belong?
-- reply high group

-- ask Band of CN1CCN(c2nc(-c3cnc4ccccc4n3)cc3ccccc23)CC1 ?
-- reply high group

-- ask Looking at CCNC(=O)Oc1ccc(/C(=C(/C)c2ccccc2)c2ccc(OCCN3CCCC3)cc2)cc1 , which class would you pick?
-- reply high group

-- ask Textbook exercise: identify the category of the compound given here, Cc1ccc(NC(=O)N[C@@H](Cc2cc(F)cc(F)c2)C(=O)NC2C(=O)N3CCC[C@H]3C(=O)N3CCCC[C@H]3C(=O)N[C@@H](C)C(=O)N3C[C@H](C)C[C@H]3C(=O)O[C@H]2C)c(F)c1 (stereo partly drawn) , according to its measured value.
-- reply middle group

-- ask Input CN1CCN(c2ccc3c(c2)nc(NNC(=O)c2ccncn2)c2cccn23)CC1 ; output its category
-- reply low group

-- ask Kindly state the category for this compound: O=C(/C=C/c1cccc(O)c1)c1ccc(O)cc1
-- reply high group

-- ask State the class of the compound shown: COc1ccc(N2C(=O)c3cc(OC)c(OC)cc3NC2SCc2ccccc2)cc1 (stereo not drawn)
-- reply high group

-- ask Category of Oc1ccc(CSc2nnc(-c3ccccc3)o2)c2cccnc12 , please.
-- reply low group

-- ask GET /class?item= Oc1ccc(CSc2nnc(-c3cnccn3)o2)c2cccnc12
-- reply low group

-- ask # bin label for O=C1c2c(c3c4cccnc4[nH]c3c3ccc4ccccc4c23)C(=O)N1CCN1CCOCC1
-- reply low group

-- ask Assign a bin to COc1ccc([C@H]2c3[nH]c4ccccc4c3C[C@@H]3C(=O)N(C4CCN(Cc5ccccc5)CC4)CC(=O)N23)c(OC)c1
-- reply middle group

-- ask Which bin, given its growth, does CCCCOc1ccc(S(=O)(=O)N2CCN(c3nccc(N4CCOCC4)n3)CC2)cc1 occupy?
-- reply middle group

---

Readings of growth for the listed compounds
tested on: MCF7 breast; assay: NCI-60 one-dose screen, 48 h (100 = growth as untreated, 0 = no growth, -100 = all killed); settings: 10 µM unless noted
This is part of a sample that, as a whole, favours compounds with a hit. Of some 83,000 tested, about 20% had one in any assay.
Please respond with the number in % and leave the unit unwritten.

Record excerpt, results attached:
N/C(=N\OC(=O)CSc1nc2ccccc2s1)c1ccc2ccccc2c1 ... 94.2
CC1(C)CC[C@]2(C(=O)N3CCCN(CC#N)CC3)CC[C@]3(C)C(=CC[C@@H]4[C@@]5(C)CC[C@H](O)C(C)(C)[C@@H]5CC[C@]43C)[C@H]2C1 ... 5.68

-- ask Give growth for the following compound: CC(C)N=C(N/C(N)=N/c1nc2ccccc2s1)NC(C)C
-- reply 43.2

-- ask Determine its reported growth: O=S(=O)(Nc1ccc2c(c1)OC(F)(F)O2)c1ccc(-c2cnc(C3CC3)o2)cc1
-- reply 19.9

-- ask Input CNC(=O)c1c(NC(=O)c2ccc(F)cc2F)sc2c1CCC(=O)C2 , output reported growth.
-- reply 7.35

---

test system: MCF7 breast; test: NCI-60 one-dose screen, 48 h (100 = growth as untreated, 0 = no growth, -100 = all killed); conditions: 10 µM unless noted
Compounds without any hit were thinned out: in the full panel of roughly 83,000, 20% have a hit.
Each entry below carries its recorded growth.
State just the number; it will be interpreted in %.

Here is how some compounds turned out for growth.
CC1OC(O[C@@H]2[C@H](O)C(CO)OC(O[C@H]3COC(O[C@H]4CC[C@]5(C)[C@H]6CC[C@]78OC[C@@]9(CC[C@](C)(C=O)C[C@H]97)C(=O)C[C@@]8(C)[C@]6(C)CC[C@H]5C4(C)C)[C@@H](O)[C@@H]3O)[C@H]2OC2OC[C@@H](O)[C@@H](O)[C@@H]2O)[C@@H](O)[C@@H](O)[C@H]1O (some centres not stated) ... 87.7
NC(=O)C(=Cc1ccc(Cl)cc1)C(N)=O ... 34.4
O=c1cc(-c2ccccc2)nc2sc(-c3c[nH]c4ccc(Br)cc34)nn12 ... 67.9
N#Cc1c(NC(=O)c2ccccc2C(F)(F)F)sc2c1CCC(=O)C2 ... 3.89
C#Cc1ccc(NC(=O)c2ccc(/C=C/C(=O)c3nccn3C)cc2)c(F)c1 ... 11

-- ask Write down growth measured for item CCN1C(=O)N(CC)C2SC(N/N=C/c3cccs3)=NC21 (configuration not stated)
-- reply 17.3

-- ask Identify growth associated with the compound CC1COc2c(N3CCN(C)CC3)c(F)cc3c(=O)c(C(=O)N/N=C/c4cc[nH]c4)cn1c23 (configuration not stated)
-- reply -5.35

-- ask Name the recorded growth of the item O=c1oc2ccc(-c3ccc(F)cc3F)cc2c(=O)n1-c1ccc(F)c(F)c1 in your answer.
-- reply 2.02

-- ask Answer with the recorded growth of CN1CCN(c2nc(-c3csc(-c4ccncc4)n3)cc3ccccc23)CC1 only.
-- reply 67.8

-- ask For the compound CC(C)C(=O)Nc1ccc(-c2nc(-c3cccc(O)c3)c(-c3ccnc(Br)c3)[nH]2)cc1 , give its reported growth.
-- reply 11.7

-- ask Give growth for the following compound: COc1cc(C(=O)c2cc(C(C)=O)c3c4ccccc4ccn23)cc(OC)c1OC
-- reply 34.2

-- ask Provide growth value for the following compound: COc1cc(C2CC(c3ccc(Nc4nc(NCCO)nc(Nc5ccc(Cl)cc5)n4)cc3)=Nc3c(N)nc(N)nc3N2)cc(OC)c1OC (configuration not stated)
-- reply 42.7

---

tested on: NCI-H522 lung; experiment: NCI-60 one-dose screen, 48 h (100 = growth as untreated, 0 = no growth, -100 = all killed); conditions: 10 µM unless noted
About 83,000 compounds went through this panel and 20% of them were active in at least one assay; those are over-represented in the sample as a whole.
reported_metric: growth (%)
The figure you give is taken to be in %; do not add the unit.

Field: example entries. Status: answers known.
CCOC(=O)c1c(NC(=O)c2ccc(F)cc2F)sc2c1CCC(=O)C2 ... 51.6
COc1cc(C(=O)c2cc(C(C)=O)c3c4ccccc4ccn23)cc(OC)c1OC ... 52
C=C(C)C(=O)O[C@H]1C[C@@]2(C)OC(=CC2=O)[C@H](C)[C@H](O)[C@H]2OC(=O)C(=C)[C@@H]21 ... -67.6
CCOC(=O)C1=C(C)Nc2nnc(Nc3ccccc3)n2C1c1ccccc1 (centres undefined) ... 79.2
COC1=C(c2ccccc2)C(=O)C(OC)=C(c2ccccc2)C1=O ... 83.8

-- ask Specify measured growth for Oc1ccc(-c2nnc(SCc3ccc(O)c4ncccc34)n2-c2ccccc2)cc1 .
-- reply -4.72

-- ask Identify measured growth associated with COc1ccc(/C=N\NC(=O)c2ccc3nc(-c4ccc(Br)cc4)[nH]c3c2)cc1
-- reply 74.6

-- ask Return the recorded growth value; entry: Cc1cc(C(=O)Nc2ccc(SC#N)cc2)c(C)o1
-- reply 49.8

-- ask Could you please provide reported growth for COc1cc2c3c(n(CCCNC4CCC4)c(=O)c2cc1OC)-c1cc2c(cc1C3=O)OCO2 ? Thanks!
-- reply -44.9
